tested on: MDAMB134VI; assay: -log10 GI50 (growth inhibition 50%) (-log10(M)); higher = more potent growth inhibition
Entries are grouped by -log10 GI50 into these classes: lo: < 6; mid: ≥ 6 and < 7; hi: ≥ 7

molecule | answer_label
C[C@@H](Oc1cc(-c2cnn(C3CCNCC3)c2)cnc1N)c1c(Cl)ccc(F)c1Cl | lo
CCC1=C[C@@H]2CN(C1)Cc1c([nH]c3ccccc13)[C@@](C(=O)OC)(c1cc3c(cc1OC)N(C)[C@H]1[C@@](O)(C(=O)OC)[C@H](OC(C)=O)[C@]4(CC)C=CCN5CC[C@]31[C@@H]54)C2 | hi
NS(=O)(=O)c1ccc(Nc2nc(OCC3CCCCC3)c3[nH]cnc3n2)cc1 | lo
CCNCCCCNCCCCNCCCCNCCCCNC/C=C/CNCCCCNCCCCNCCCCNCCCCNCC | mid
CO[C@H]1C[C@@H]2CC[C@@H](C)[C@@](O)(O2)C(=O)C(=O)N2CCCC[C@H]2C(=O)O[C@H]([C@H](C)C[C@@H]2CC[C@@H](O)[C@H](OC)C2)CC(=O)[C@H](C)/C=C(\C)[C@@H](O)[C@@H](OC)C(=O)[C@H](C)C[C@H](C)/C=C/C=C/C=C/1C | hi
CCc1c2c(nc3ccc(OC(=O)N4CCC(N5CCCCC5)CC4)cc13)-c1cc3c(c(=O)n1C2)COC(=O)[C@]3(O)CC | lo
CC/C(=C(\c1ccccc1)c1ccc(OCCN(C)C)cc1)c1ccccc1 | mid
COc1cc([C@@H]2c3cc4c(cc3[C@@H](O[C@@H]3O[C@@H]5CO[C@@H](C)O[C@H]5[C@H](O)[C@H]3O)[C@H]3COC(=O)[C@H]23)OCO4)cc(OC)c1O [Etoposide] | lo
C#Cc1cccc(Nc2ncnc3cc(OCCOC)c(OCCOC)cc23)c1 | lo
Nc1nc2[nH]cc(CCc3ccc(C(=O)N[C@@H](CCC(=O)O)C(=O)O)cc3)c2c(=O)[nH]1 | lo
N#Cc1c(-c2ccccc2)cc(-c2cc(Br)ccc2O)[nH]c1=O | lo
